Taken from patent US20240317871A1.

# ELISA signal per record follows
Target: T1, murine HVEM (murine, UniProt Q80WM9 39-206, limits assumed); further: test concentration or dose not given here
T1 construct: also called Mouse
T1 sequence (looked up): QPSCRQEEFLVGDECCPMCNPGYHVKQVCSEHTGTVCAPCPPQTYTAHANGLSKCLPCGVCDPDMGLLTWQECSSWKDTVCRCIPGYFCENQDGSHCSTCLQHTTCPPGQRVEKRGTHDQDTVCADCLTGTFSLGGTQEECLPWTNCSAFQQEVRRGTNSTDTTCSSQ
Assay: ELISA

{"binder": "Ab_017 (H5S14-18A16A) (antibody, V domains shown, also called Ab_17) VH: EVQLVETGGGLVQPKGSLKLSCAASGFTFNTNAMNWVRQAPGKGLEWVARIRSKSNNYATYYADSVKDRFTISRDDSQSMLYLQMNNLKTEDTAMYYCVREGGYGNYPYFDYWGQGTTLTVSS VL: SIVMTQTPKFLLVSAGDRVTITCKASQSVSNDVAWYQQKPGQSPKLLIYYASNRYTGVPDRFTGSGYGTDFTFTISTVQAEDLAVYFCQQDYSSPWTFGGGTKLEIK", "ELISA signal": 0.044}
{"binder": "Ab_082 (H5S20-55A36A) (antibody, V domains shown, also called Ab_82) VH: EVKLVESGGGLVQPGGSLKLSCAASGFTFSSYTMSWVRQTPEKRLEWVADISNGGGSTYYPDTVKGRFTISRDNAKNTLYLQMSSLKSEDTAMYYCARHRGYGNYVYAMDYWGQGTSVTVSS VL: DIVMTQSQKFMSTSVGDRVSVTCKASQNVGTNVAWYQQKPGQSPKALIYSASYRYSGVPDRFTGSGSGTDFTLTISNVQSEDLAEYFCQQYNSYPLTFGGGTKLEIK", "ELISA signal": 0.044}
{"binder": "Ab_049 (H5S19-25A24A) (antibody, V domains shown, also called Ab_49) VH: QVQLQQSGAELMKPGASVKISCKATGYTFSSYWIEWVKQRPGHGLEWIGEILPGSGSTNYNEKFKGKATFTADTSSNTAYMQLSSLTSEDSAVYYCARYPRWGKIDYWGQGTTLTVSS VL: DIVMTQAAFSNPVTLGTSASISCRSSKSLLHSNGITYLYWYLQKPGQSPQLLIYQMSNLASGVPDRFSSSGSGTDFTLRISRVEAEDVGVYYCAQNLELPYTFGGGTKLEIK", "ELISA signal": 0.044}
